FYI, the data here is from ChEMBL document CHEMBL1201862.

# System: HCC 2998
# experiment.description: NCI tumour cell line growth inhibition, 48 h
Activity calls are given as the source filed them. Cut-off read from the data, not from the text of the source: active = GI50 up to about 1.1 µM and inactive = higher.
Outcome codes: active, inactive

{"compound": "COc1cc2c(cc1O)CCN[C@@]21CS[C@H]2c3c(OC(C)=O)c(C)c4c(c3C(COC1=O)N1C2C2c3c(cc(C)c(OC)c3O)CC([C@@H]1O)N2C)OCO4 (some centres not stated)", "class.label": "active"}
{"compound": "O=[PH](O)c1cc2c3ccccc3ccc2c2ccccc12", "class.label": "inactive"}
{"compound": "CCOC(=O)C1=C(C)CC2C(=O)OC(=O)C2C1(C)C (configuration not stated)", "class.label": "inactive"}
{"compound": "COC(=O)C(CCS(=O)(=O)CC(=O)C(=O)Nc1cccc(C(C)=O)c1)C(=O)OC", "class.label": "inactive"}
{"compound": "CC1=NN(c2nc(N)nc(-c3ccccc3S(N)(=O)=O)n2)C(C)(C)C1", "class.label": "inactive"}
{"compound": "CCOC(=O)/C(C#N)=C1\\c2c([nH]c(=S)[nH]c2=O)Oc2ccc3ccccc3c21", "class.label": "inactive"}
{"compound": "CC(=O)OC1CCC2(C)C3CCC4(C)C(c5ccc(=O)oc5)CC5OC54C3CCC2(O)C1 (configuration not stated)", "class.label": "inactive"}

* * *

Let's look at some molecules and their measured GI50.
# Tested on: MDA-MB-435
# experiment.description: NCI tumour cell line growth inhibition, 48 h
Calls of active or inactive are those of the source. No stated cut-off is given here; in the data, active = GI50 up to about 1.1 µM and inactive = higher.

{"molecule": "CC[C@@]12CCCN3CC[C@]4(c5cccc(OC)c5N(C(C)=O)[C@@H]4CC1)[C@H]32", "GI50": "38.3 µM (inactive)"}
{"molecule": "COc1cc(OC)c(OC)cc1/C=C/c1ccccn1", "GI50": "> 10 µM (inactive)"}
{"molecule": "Cn1cc2c3ccccc3nc-2c2ccccc21 [ISOCRYPTOLEPINE]", "GI50": "2.39 µM (inactive)"}
{"molecule": "CCCC(=O)NC1=C(Cl)C(=O)c2ccccc2C1=O", "GI50": "3.42 µM (inactive)"}

* * *

# Tested on: SK-MEL-28
# experiment.description: NCI tumour cell line growth inhibition, 48 h
The source made the active and inactive calls. Rule as the data show it: active = GI50 up to about 1.1 µM and inactive = higher.
Outcome codes: active, inactive

{"compound": "CCCCCCCCCCCCCCCCCCN(C)C(COC)COP(=O)([O-])OCC[N+](C)(C)C (stereo not given)", "class.label": "inactive"}
{"compound": "COc1ccccc1-c1nc(-c2ccccc2O)n[nH]1", "class.label": "inactive"}
{"compound": "Cc1ccc(NC(=O)CCC/C(CC(=O)c2ccc(Br)cc2)=N/NC(=O)CC#N)cc1", "class.label": "inactive"}
{"compound": "COc1ccc2c3c1OC1C(=O)C=CC4(CC2)N(C)CCC314 (stereo not given)", "class.label": "inactive"}
{"compound": "c1ccc(C2=NC3OC2c2ccccc23)cc1 (stereo not given)", "class.label": "inactive"}
{"compound": "COC1OC2COC(c3ccccc3)OC2C(OC(=S)c2ccccc2)C1O (stereo not given)", "class.label": "active"}
{"compound": "CC[C@@]12CCCN3CC[C@]4(c5cccc(OC)c5N(C(C)=O)[C@@H]4CC1)[C@H]32 [ASPIDOSPERMINE]", "class.label": "inactive"}
{"compound": "Nc1ccc2nc3n(c2c1)C(=O)c1ccccc1-3", "class.label": "inactive"}
{"compound": "O=C(NC1C=Nc2ccc([N+](=O)[O-])cc2NC1=O)c1cc(Cl)cc([N+](=O)[O-])c1 (stereo not given)", "class.label": "inactive"}
{"compound": "O=C1C(Br)=C(c2ccccc2)O/C1=C/C(=O)c1ccc(Br)cc1", "class.label": "inactive"}
{"compound": "Oc1ccc2ccccc2c1/N=N/c1ccccc1", "class.label": "inactive"}
{"compound": "Cc1cc2c(cc1Cl)SC(N/N=C(\\N)c1ccc(Cl)cc1)=NS2(=O)=O", "class.label": "inactive"}
{"compound": "Cc1c2ccncc2c(C)c2c1sc1ccccc12", "class.label": "inactive"}
{"compound": "CCOC(=O)C1CC(=O)C=C2CCCCC21 (stereo not given)", "class.label": "inactive"}
{"compound": "Cc1c(C(=O)OCc2ccccc2)[n+]([O-])c2cc(F)c(F)cc2[n+]1[O-]", "class.label": "inactive"}
{"compound": "C=CCN1COc2c(cc3c4c(cccc24)C(=O)O3)C1", "class.label": "inactive"}
{"compound": "Cn1cc2c3ccccc3nc-2c2ccccc21 [ISOCRYPTOLEPINE]", "class.label": "inactive"}
{"compound": "CC1OC(O)C(O)C(O)C1O (stereo not given)", "class.label": "inactive"}
{"compound": "CCCCCCC(N)(CCCCCC)C(=O)Nn1c(C)ccc1C", "class.label": "inactive"}
{"compound": "Cc1cc(C)nc(NS(=O)(=O)c2ccc(NNC(=O)c3cccc4c(=O)c5ccccc5[nH]c34)cc2)n1", "class.label": "inactive"}

* * *

# Test system: HOP-62
# experiment.description: NCI tumour cell line growth inhibition, 48 h
Active and inactive are the calls of the source. No stated cut-off is given here; in the data, active = GI50 up to about 1.1 µM and inactive = higher.

{"compound": "CCCCCCCCCCCCCCCCCCN(C)C(COC)COP(=O)([O-])OCC[N+](C)(C)C (stereo not drawn)", "measurement.target": "HOP-62", "GI50": "3.09 µM (inactive)"}
{"compound": "C=C1[C@H](OC(C)=O)[C@H]2[C@@H](OC(C)=O)[C@@H](C)C[C@]2(C)C(=O)[C@H](C)/C=C/C(C)(C)C(=O)[C@H](OCC(C)C)[C@H]1OC(C)=O", "measurement.target": "HOP-62", "GI50": "19.5 µM (inactive)"}
{"compound": "COc1ccc(/C=C2\\CCC(Cc3ccccc3)(CN(C)C)C2=O)cc1 (stereo not drawn)", "measurement.target": "HOP-62", "GI50": "> 100 µM (inactive)"}

* * *

# Test system: NCI-H226
# experiment.description: NCI tumour cell line growth inhibition, 48 h
The source made the active and inactive calls. No stated cut-off is given here; in the data, active = GI50 up to about 1.1 µM and inactive = higher.

{"molecule": "CCC/N=C/c1cc(Cc2ccc(O)c(/C=N/CCC)c2)ccc1O", "measurement.target": "NCI-H226", "GI50": "8.43 µM (inactive)"}
{"molecule": "CCCC(=O)N[C@H]1C2C3CC4C5CC(C42)C1(C)C53 (stereo not given in full)", "measurement.target": "NCI-H226", "GI50": "> 100 µM (inactive)"}
{"molecule": "COC1OC2COC(c3ccccc3)OC2C(OC(=S)c2ccccc2)C1O (stereo not given)", "measurement.target": "NCI-H226", "GI50": "25.1 µM (inactive)"}
{"molecule": "CCOC(=O)C1(C/C=C(/C)Cl)CCCC1=O (stereo not given)", "measurement.target": "NCI-H226", "GI50": "> 100 µM (inactive)"}
{"molecule": "CN1C(=O)C(=CN)C(=O)N(C)C1=O", "measurement.target": "NCI-H226", "GI50": "> 100 µM (inactive)"}
{"molecule": "Cc1ccc(C2=C(Cl)C(=O)C(c3ccc(C)cc3)=C(Cl)C2=O)cc1", "measurement.target": "NCI-H226", "GI50": "> 100 µM (inactive)"}
{"molecule": "CNC(=O)NCCCCC(NC(C)=O)C(=O)NCc1ccccc1 (stereo not given)", "measurement.target": "NCI-H226", "GI50": "> 100 µM (inactive)"}
{"molecule": "NNC(=S)N/N=C(/C(=O)Nc1ccc(Cl)c(Cl)c1)C(C1OC(=O)c2ccccc21)[N+](=O)[O-] (stereo not given)", "measurement.target": "NCI-H226", "GI50": "> 100 µM (inactive)"}
{"molecule": "Cc1cccc(C)c1NC(=O)/C(=N/NC(N)=S)C(C)C(=O)c1ccc(Cl)cc1 (stereo not given)", "measurement.target": "NCI-H226", "GI50": "> 100 µM (inactive)"}
{"molecule": "Cc1ccc(S(=O)(=O)N2C[C@](O)(c3ccccc3)[C@H]2C)cc1", "measurement.target": "NCI-H226", "GI50": "> 100 µM (inactive)"}

* * *

# Tested on: SF-539
# experiment.description: NCI tumour cell line growth inhibition, 48 h
Activity calls are given as the source filed them. Rule as the data show it: active = GI50 up to about 1.1 µM and inactive = higher.
readout: GI50

{"molecule": "NS(=O)(=O)c1ccc2c(c1)OCCOCCOCCOCCO2", "readout": "GI50", "data.value": "> 100 µM (inactive)"}
{"molecule": "O=[PH](O)c1cc2c3ccccc3ccc2c2ccccc12", "readout": "GI50", "data.value": "> 100 µM (inactive)"}
{"molecule": "O=CC(O)C(O)C(O)C(O)C(=O)NCCCCCCCCCCCCNC(=O)C(O)C(O)C(O)C(O)C=O (stereo unspecified)", "readout": "GI50", "data.value": "> 100 µM (inactive)"}
{"molecule": "O=CC12c3ccccc3C(c3ccccc31)C1C(=O)NC(=O)C12 (stereo unspecified)", "readout": "GI50", "data.value": "> 100 µM (inactive)"}
{"molecule": "CCOc1ccc(NC(=O)c2c(N/N=C/c3ccc(OC)cc3)nc(=O)[nH]c2C)cc1", "readout": "GI50", "data.value": "37 µM (inactive)"}
{"molecule": "COC(=O)N/N=C(\\c1ccccc1)c1ccc(OC)cc1", "readout": "GI50", "data.value": "> 100 µM (inactive)"}
